Test: Pharmacokinetics of RTX after intra-articular injection in the Phase 1b study
Type: in vivo, human
Conditions: human, in vivo, other: intra-articular injection, 30 μg, Cohort 6, 30 μg/5 or 10 ml; subject with quantifiable PK
quantity name: AUC(0-t) (ng·h/mL)
Write down the numeric answer in ng·h/mL and omit the unit.

AUC(0-t) reported for this molecule C=C(C)[C@]12C[C@@H](C)[C@@]34O[C@](Cc5ccccc5)(O[C@@H]1[C@@H]3C=C(COC(=O)Cc1ccc(O)c(OC)c1)C[C@]1(O)C(=O)C(C)=C[C@@H]41)O2 : 0.0854

====

Assay: Pharmacokinetics of RTX after intra-articular injection in the Phase 1b study
Format: in vivo, human
Conditions: human, in vivo, other: intra-articular injection, 12.5 μg, Cohort 4a, 12.5 μg/10 ml; subject with quantifiable PK; read-out: AUC (0-6 hr)
quantity name: AUC(0-t) (ng·h/mL)
Write down the numeric answer in ng·h/mL and omit the unit.

AUC(0-t) reported for this compound C=C(C)[C@]12C[C@@H](C)[C@@]34O[C@](Cc5ccccc5)(O[C@@H]1[C@@H]3C=C(COC(=O)Cc1ccc(O)c(OC)c1)C[C@]1(O)C(=O)C(C)=C[C@@H]41)O2 [RTX, resiniferatoxin] : 0.146

====

Test: Pharmacokinetics of RTX after intra-articular injection in the Phase 1b study
Assay type: in vivo, human
Details: human, in vivo, other: intra-articular injection, 30 μg, Cohort 6, 30 μg/5 or 10 ml; subject with quantifiable PK
quantity name: Cmax (ng/mL)
Write down the numeric answer in ng/mL and omit the unit.

Cmax reported for this compound C=C(C)[C@]12C[C@@H](C)[C@@]34O[C@](Cc5ccccc5)(O[C@@H]1[C@@H]3C=C(COC(=O)Cc1ccc(O)c(OC)c1)C[C@]1(O)C(=O)C(C)=C[C@@H]41)O2 : 0.0878
